B1: NLV3 TCR beta chain (CDR3β only) (parent)
chain: ASSPTGGSPSPLH

# Variants of: B1
# EXPERIMENT NOTES: T-Switch: Jurkat TCRβ−/− cells expressing a CDR3 saturation-mutagenesis library, stained with two peptide-HLA-A*02:01 tetramers (original and novel peptide) plus anti-CD3, FACS-sorted into four gates, gDNA sequenced
# RUN PARAMETERS: with both tetramers (double-negative gate, binds neither): HLA-A*02:01 with … and with …, tetramers 1 µg/mL, 30 min on ice, SP, DP and SW gates expanded about 10 days between rounds ('two to three rounds of selection' in the Methods), gate DN: OPPOSITE: higher = more of the variant in the gate that binds neither peptide = LESS binding (or no expression; inferred). Fold enrichment of the CDR3 variant in one FACS gate of a two-tetram, unresolved parent, parent is a CDR3 fragment, scale: fold enrichment, numbering: sequential-on-construct, sequence starts at 1
Each record's class is read off its enrichment using these ranges: group 1 = under 0.8, group 2 = from 0.8 up to 1, group 3 = 1 and over

[[record]]
alteration = "[…] (CDR3 as printed); G6A derived by comparing it with the table's wild-type CDR3 ASSPTGGSPSPLH"
class_label = "group 1"

[[record]]
alteration = "[…] (CDR3 as printed); H13A derived by comparing it with the table's wild-type CDR3 ASSPTGGSPSPLH"
class_label = "group 1"

[[record]]
alteration = "[…] (CDR3 as printed); H13F derived by comparing it with the table's wild-type CDR3 ASSPTGGSPSPLH"
class_label = "group 1"

[[record]]
alteration = "[…] (CDR3 as printed); H13E derived by comparing it with the table's wild-type CDR3 ASSPTGGSPSPLH"
class_label = "group 2"

[[record]]
alteration = "[…] (CDR3 as printed); T5Q derived by comparing it with the table's wild-type CDR3 ASSPTGGSPSPLH"
class_label = "group 3"

[[record]]
alteration = "[…] (CDR3 as printed); G6V derived by comparing it with the table's wild-type CDR3 ASSPTGGSPSPLH"
class_label = "group 3"

[[record]]
alteration = "[…] (CDR3 as printed); A1F derived by comparing it with the table's wild-type CDR3 ASSPTGGSPSPLH"
class_label = "group 2"

[[record]]
alteration = "[…] (CDR3 as printed); G6E derived by comparing it with the table's wild-type CDR3 ASSPTGGSPSPLH"
class_label = "group 3"

[[record]]
alteration = "[…] (CDR3 as printed); S8F derived by comparing it with the table's wild-type CDR3 ASSPTGGSPSPLH"
class_label = "group 2"

[[record]]
alteration = "[…] (CDR3 as printed); L12Q derived by comparing it with the table's wild-type CDR3 ASSPTGGSPSPLH"
class_label = "group 1"

[[record]]
alteration = "[…] (CDR3 as printed); T5I derived by comparing it with the table's wild-type CDR3 ASSPTGGSPSPLH"
class_label = "group 1"

[[record]]
alteration = "[…] (CDR3 as printed); G7L derived by comparing it with the table's wild-type CDR3 ASSPTGGSPSPLH"
class_label = "group 3"

[[record]]
alteration = "[…] (CDR3 as printed); P4A derived by comparing it with the table's wild-type CDR3 ASSPTGGSPSPLH"
class_label = "group 1"

[[record]]
alteration = "[…] (CDR3 as printed); P9F derived by comparing it with the table's wild-type CDR3 ASSPTGGSPSPLH"
class_label = "group 2"

[[record]]
alteration = "[…] (CDR3 as printed); G7I derived by comparing it with the table's wild-type CDR3 ASSPTGGSPSPLH"
class_label = "group 3"

[[record]]
alteration = "[…] (CDR3 as printed); P11R derived by comparing it with the table's wild-type CDR3 ASSPTGGSPSPLH"
class_label = "group 1"

[[record]]
alteration = "[…] (CDR3 as printed); P9I derived by comparing it with the table's wild-type CDR3 ASSPTGGSPSPLH"
class_label = "group 3"

[[record]]
alteration = "[…] (CDR3 as printed); P11M derived by comparing it with the table's wild-type CDR3 ASSPTGGSPSPLH"
class_label = "group 1"

[[record]]
alteration = "[…] (CDR3 as printed); P11T derived by comparing it with the table's wild-type CDR3 ASSPTGGSPSPLH"
class_label = "group 3"

[[record]]
alteration = "[…] (CDR3 as printed); T5G derived by comparing it with the table's wild-type CDR3 ASSPTGGSPSPLH"
class_label = "group 2"

[[record]]
alteration = "[…] (CDR3 as printed); L12R derived by comparing it with the table's wild-type CDR3 ASSPTGGSPSPLH"
class_label = "group 1"

[[record]]
alteration = "[…] (CDR3 as printed); S3R derived by comparing it with the table's wild-type CDR3 ASSPTGGSPSPLH"
class_label = "group 2"

[[record]]
alteration = "[…] (CDR3 as printed); P11H derived by comparing it with the table's wild-type CDR3 ASSPTGGSPSPLH"
class_label = "group 3"

[[record]]
alteration = "[…] (CDR3 as printed); S10N derived by comparing it with the table's wild-type CDR3 ASSPTGGSPSPLH"
class_label = "group 3"

[[record]]
alteration = "[…] (CDR3 as printed); S2M derived by comparing it with the table's wild-type CDR3 ASSPTGGSPSPLH"
class_label = "group 1"

[[record]]
alteration = "[…] (CDR3 as printed); P9Y derived by comparing it with the table's wild-type CDR3 ASSPTGGSPSPLH"
class_label = "group 1"

